All figures here come from PubChem BioAssay (NCI).

Let's go through some GI50 measurements on PC-3 prostate together.
quantity-kind: GI50

1) Cn1c(=O)c(Oc2ccc(F)cc2F)cc2cnc(NCCS(C)(=O)=O)nc21    > 25 µM
2) O=C(Nc1ccc(I)cc1F)c1cc(Cl)ccc1O    1.91 µM
3) C/C=C(\C)C(=O)N[C@H]1C(O)C[C@]2(C)C3CC[C@@]4(C)C(CC[C@@H]4C(C)N(C)C)C3CCC2C1O (stereo not given in full)    8.72 µM
4) Oc1ccc(Cl)cc1CNc1nc2ccccc2[nH]1    9.75 µM
5) CCN(CC)CCSCCCNc1c2ccc(Cl)cc2nc2ccc(OC)cc12    1.23 µM
